- Tested on: Bel-7402
- method notes: Antiproliferative activity against human Bel7402 cells after 24 hrs by MTT assay
- Format: functional, cell-based
- condition notes: Bel-7402, 24 h
pIC50: −log10 of the molar value.
observation type: pIC50

compound	experimental target	result value
C=C1C(=O)[C@@]23C(=O)OC[C@@]4(C2CC[C@@H]1[C@H]3OC(=O)CCC(=O)OCCCOc1no[n+]([O-])c1S(=O)(=O)c1ccccc1)[C@@H](OC(C)=O)CCC(C)(C)[C@H]4C=O (stereo partly specified)	Bel-7402	5.74
C=C1C(=O)[C@@]23C(=O)OC[C@]4(C(=O)CCC(C)(C)[C@H]4C=O)C2CC[C@@H]1[C@H]3OC(=O)CCC(=O)OCCCOc1no[n+]([O-])c1S(=O)(=O)c1ccccc1 (stereo partly specified)	Bel-7402	5.83
C=C1C(=O)[C@@]23C(=O)OC[C@]4(C(=O)CCC(C)(C)[C@H]4C=O)C2CC[C@@H]1[C@H]3O (stereo partly specified)	Bel-7402	5.30
COC(=O)CCC(=O)OCCOc1no[n+]([O-])c1S(=O)(=O)c1ccccc1	Bel-7402	4.56
C=C1C(=O)[C@@]23C(=O)OC[C@@]4(C2CC[C@@H]1[C@H]3OC(=O)c1ccccc1C(=O)OCCCOc1no[n+]([O-])c1S(=O)(=O)c1ccccc1)[C@@H](OC(C)=O)CCC(C)(C)[C@H]4C=O (stereo partly specified)	Bel-7402	6.07
C=C1C(=O)[C@@]23C(=O)OC[C@@]4(C2CC[C@@H]1[C@H]3O)[C@@H](OC(C)=O)CCC(C)(C)[C@H]4C=O (stereo partly specified)	Bel-7402	4.16
